Reference for the values: patent EP4365197A1

Overview of reported OD450 measurements across a group of binders:
- assaySystem: CD47 protein (Acrobiosystems, cat#CD7-HA2E9) (UniProt Q08722)
- Sequence (Q08722 19-139 limits assumed): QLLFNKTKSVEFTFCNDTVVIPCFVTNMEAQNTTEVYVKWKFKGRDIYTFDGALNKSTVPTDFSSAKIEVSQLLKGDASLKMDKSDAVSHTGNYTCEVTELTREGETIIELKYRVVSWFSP
- runDescription: ELISA, CD47 protein coated 100 ng/well, 0.8 µg antibody per well
measuredAttribute: OD450 measurements (OD450)

binder	measuredValue
Hu3A5 (V14) antibody (antibody, V domains shown, Humanized 3A5) VH: QVQLVQSGSELKKPGASVKVSCKASGYTFTSYWMNWVRQAPGQGLEWMGVIDPSDSYTSYNQGFTGRFVFSVDTSVSTAYLQISSLKAEDTAVYYCARGGKRAMDYWGQGTTVTVSS VL: DVVMTQSPLSLPVTLGQPASISCRSSQSLVHSNGNTYLHWFQQRPGQSPRLLIYKVSNRFSGVPDRFSGSGSGTDFTLKISRVEAEDVGVYYCSQSTHVPFTFGGGTKLEIK	0.147
Hu3A5 (V11) antibody (antibody, V domains shown, Humanized 3A5) VH: EVQLVQSGSELKKPGASVKVSCKASGYTFTSYWMHWMRQAPGQGLEWIGVIDPSDSYTSYNQGFTGRFVLSVDTSVSTAYLQISSLKAEDTAVYYCARGGKRAMDYWGQGTTVTVSS VL: DVVMTQSPDSLAVSLGERATINCKSSQSLVHSNGNTYLHWYQQKPGQPPKLLIYKVSNRFSGVPDRFSGSGSGTDFTLTISSLQAEDVAVYFCSQSTHVPFTFGGGTKLEIK	2.81
Hu3A5 (V6) antibody (antibody, V domains shown, Humanized 3A5) VH: QVQLVQSGAEVKKPGASVKVSCKASGYTFTSYWMHWVRQAPGQGLEWMGVIDPSDSYTSYNQKFQGRVTMTVDTSTSTAYMELSSLRSEDTAVYYCARGGKRAMDYWGQGTTVTVSS VL: DVVMTQSPLSLPVTLGQPASISCRSSQSLVHSNGNTYLHWFQQRPGQSPRLLIYKVSNRFSGVPDRFSGSGSGTDFTLKISRVEAEDVGVYYCSQSTHVPFTFGGGTKLEIK	2.62
Hu3A5 (V10) antibody (antibody, V domains shown) VH: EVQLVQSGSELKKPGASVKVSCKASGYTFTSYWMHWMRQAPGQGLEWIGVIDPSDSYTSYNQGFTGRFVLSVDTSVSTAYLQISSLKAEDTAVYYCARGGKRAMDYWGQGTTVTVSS VL: DVVMTQSPLSLPVTLGQPASISCRSSQSLVHSNGNTYLHWFQQRPGQSPRLLIYKVSNRFSGVPDRFSGSGSGTDFTLKISRVEAEDVGVYYCSQSTHVPFTFGGGTKLEIK	2.81
Hu3A5 (V2) antibody (antibody, V domains shown, Humanized 3A5) VH: EVQLVQSGAEVKKPGASVKVSCKASGYTFTSYWMHWMRQAPGQGLEWIGVIDPSDSYTSYNQKFQGRVTLTVDTSTSTAYMELSSLRSEDTAVYYCARGGKRAMDYWGQGTTVTVSS VL: DVVMTQSPLSLPVTLGQPASISCRSSQSLVHSNGNTYLHWFQQRPGQSPRLLIYKVSNRFSGVPDRFSGSGSGTDFTLKISRVEAEDVGVYYCSQSTHVPFTFGGGTKLEIK	2.69
